assay: Tmax in Sprague-Dawley rat at 5 mg/kg, po treated with 10 mg/kg elacridar immediately after compound dosing; format: ADME, organism-based; details: in vivo, with elacridar 10 mg/kg
readout kind: Tmax (h)

>>> reported_measurement("C=C(C)[C@@H]1CC[C@]2(NCCN3CCS(=O)(=O)CC3)CC[C@]3(C)[C@H](CC[C@@H]4[C@@]5(C)CC=C(c6ccc(C(=O)O)cc6)C(C)(C)[C@@H]5CC[C@]43C)[C@@H]12")
7.3

* * *

Reported solubility values are given for each entry in this list.
assay: Solubility of compound in fasted state simulated intestinal fluid at pH 6.5; assay type: physicochemical
readout kind: solubility (µg/mL)

>>> reported_measurement("C=C(C)[C@@H]1CC[C@]2(NCCN3CCS(=O)(=O)CC3)CC[C@]3(C)[C@H](CC[C@@H]4[C@@]5(C)CC=C(c6ccc(C(=O)O)cc6)C(C)(C)[C@@H]5CC[C@]43C)[C@@H]12 [BMS-955176]")
280
>>> reported_measurement("C=C(C)[C@@H]1CC[C@]2(NCCN3CCS(=O)(=O)CC3)CC[C@]3(C)[C@H](CC[C@@H]4[C@@]5(C)CC=C(c6ccc(C(=O)O)c(F)c6)C(C)(C)[C@@H]5CC[C@]43C)[C@@H]12")
140

Taken from ChEMBL document CHEMBL4152347.
